MEASUREMENT_TARGET: bdSUMO-MBP fusion protein
Listed here: items and their measured cleavage of the SUMO fusion protein.

Reference set, count: 4
bdSENP1^MutG (protein) PFVPLTDEDEDNVRHALGGRKSSETLSVHEASHIVITREILQCLNDKEWLNDEVINLYLELLKERELREPNKFLKCHFFNTFFYKKLINGGYDYKSVRRWTTVKLGYNLIDCDKIFVPIHKDVHWCLAVINIKEKKFQYLDSLGYMDMKALRILAKYLVDEVKDKSGKQIDVHAWKQEGVQNLPLQENGWDCGMFMLKYIDFYSRDMELVFGQKHMSYFRRRTAKEILDLKAG :: < 50 % cleavage
Ulp1 from S. cerevisiae (protein) LVPELNEKDDDQVQKALASRENTQLMNRDNIEITVRDFKTLAPRRWLNDTIIEFFMKYIEKSTPNTVAFNSFFYTNLSERGYQGVRRWMKRKKTQIDKLDKIFTPINLNQSHWALGIIDLKKKTIGYVDSLSNGPNAMSFAILTDLQKYVMEESKHTIGEDFDLIHLDCPQQPNGYDCGIYVCMNTLYGSADAPLDFDYKDAIRMRRFIAHLILTDALK :: 100 % cleavage
bdSENP1^MutH (protein) PFVPLTDEDEDNVRHALGGRKPSETLSVHEASAIVITREILQCLNDKEWLNDEVINLYLELLKERELREPNKFLKCHFFNTFFYKKLINGYDYKSVREWTTMRKLGYNLIDCDKIFVPIHKDVHWCLAVINIKEKKFQYLDSLGYMDMKALRILAKYLVDEVKDKSGKQIDVHAWKQEGVQNLPLQENGWDCGMFMLKYIDFYSRDMELVFGQKHMSYFRRRTAKEILDLKAG :: < 25 % cleavage
bdSENP1^Muti (protein) PFVPLTDEDEDNVRHALGGRKKSETLSVHEASHIVITREILQCLNDKEWLNDEVINLYLELLKERELREPNKFLKCHFFNTFFYKKLINGGYDYKSVREWTTRRKLGYNLIDCDKIFVPIHKDVHWCLAVINIKEKKFQYLDSLGYMDMKALRILAKYLVDEVKDKSGKQIDVHAWKQEGVQNLPLQENGWDCGMFMLKYIDFYSRDMELVFGQKHMSYFRRRTAKEILDLKAG :: < 25 % cleavage

Please find the next protein below.
Problem: Dear colleague, I am looking for the recorded cleavage of the SUMO fusion protein of the following protein: hsSENP2 (protein) EFPEITEEMEKEIKNVFRNGNQDEVLSEAFRLTITRKDIQTLNHLNWLNDEIINFYMNMLMERSKEKGLPSVHAFNTFFFTKLKTAGYQAVKRWTKKVDVFSVDILLVPIHLGVHWCLAVVDFRKKNITYYDSMGGINNEACRILLQYLKQESIDKKRKEFDTNGWQLFSKKSQEIPQQMNGSDCGMFACKYADCITKDRPINFTQQHMPYFRKRMVWEILHRKLL
Solution: < 50 % cleavage
